# credit: ChEMBL document CHEMBL1961873

# System tested: Aurora kinase B (Homo sapiens) (UniProt Q96GD4)
# Sequence (Q96GD4 whole entry): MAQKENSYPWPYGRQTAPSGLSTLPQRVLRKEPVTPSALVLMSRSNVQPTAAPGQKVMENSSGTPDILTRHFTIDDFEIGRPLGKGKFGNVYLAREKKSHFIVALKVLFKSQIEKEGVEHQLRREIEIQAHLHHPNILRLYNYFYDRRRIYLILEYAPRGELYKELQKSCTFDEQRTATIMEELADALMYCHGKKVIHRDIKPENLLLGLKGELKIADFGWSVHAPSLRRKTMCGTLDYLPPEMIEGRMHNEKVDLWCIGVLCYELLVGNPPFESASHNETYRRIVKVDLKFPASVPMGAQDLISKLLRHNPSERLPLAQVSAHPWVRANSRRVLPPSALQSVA
# Details: at 0.1 µM
Reported endpoint: inhibition (%)

[[record]]
record_smiles = "CS(=O)(=O)Nc1ccc(N/C=C2\\C(=O)Nc3ccccc32)cc1"
system_tested = "Aurora kinase B (Homo sapiens) (UniProt Q96GD4)"
output_unit = "%"
result_number = 7.77

[[record]]
record_smiles = "CCn1c(-c2nonc2N)nc2c(C#CC(C)(C)O)nc(OC[C@@H](N)c3ccccc3)cc21"
system_tested = "Aurora kinase B (Homo sapiens) (UniProt Q96GD4)"
output_unit = "%"
result_number = 2.1

[[record]]
record_smiles = "COc1ccc(-c2ccncc2)cc1C(N)=O"
system_tested = "Aurora kinase B (Homo sapiens) (UniProt Q96GD4)"
output_unit = "%"
result_number = 5.11

[[record]]
record_smiles = "CCn1c(-c2nonc2N)nc2cncc(C(=O)N3CCNCC3)c21"
system_tested = "Aurora kinase B (Homo sapiens) (UniProt Q96GD4)"
output_unit = "%"
result_number = 3.66


* * *

# System tested: Aurora kinase B (Homo sapiens) (UniProt Q96GD4)
# Details: at 1 µM
Reported endpoint: inhibition (%)

[[record]]
molecule = "NS(=O)(=O)c1ccc(N/N=C2\\C(=O)Nc3ccc(C(=O)NCCc4c[nH]cn4)cc32)cc1"
result_number = 26.8

[[record]]
molecule = "NC(=O)c1ccc(-c2nc(-c3ccccn3)c(-c3ccc4c(c3)OCO4)[nH]2)cc1"
result_number = 4.45

[[record]]
molecule = "CCCN1CCC(Oc2cc(Nc3nc(Nc4cccc(F)c4C(N)=O)c4cc[nH]c4n3)c(OC)cc2Cl)CC1"
result_number = 6.47

[[record]]
molecule = "COc1ccc2cc(-c3c(-c4ccncc4)nc(-c4ccc([S+](C)[O-])cc4)n3C)ccc2c1 (configuration not stated)"
result_number = 11

[[record]]
molecule = "CC(C)=Cc1cccc2c1/C(=N/Nc1ccc(S(N)(=O)=O)cc1)C(=O)N2"
result_number = 45

[[record]]
molecule = "CCc1cccc(NC(=O)Nc2ccc(Oc3ccc4nc(NC(=O)OC)[nH]c4c3)cc2)c1"
result_number = 15.6

[[record]]
molecule = "N#Cc1c(NC(=O)c2cccc3ccccc23)sc2c1CCCC2"
result_number = 3.57


* * *

# Test system: Epidermal growth factor receptor (Homo sapiens), P00533 [T790M]
# Sequence (P00533 whole entry T790M): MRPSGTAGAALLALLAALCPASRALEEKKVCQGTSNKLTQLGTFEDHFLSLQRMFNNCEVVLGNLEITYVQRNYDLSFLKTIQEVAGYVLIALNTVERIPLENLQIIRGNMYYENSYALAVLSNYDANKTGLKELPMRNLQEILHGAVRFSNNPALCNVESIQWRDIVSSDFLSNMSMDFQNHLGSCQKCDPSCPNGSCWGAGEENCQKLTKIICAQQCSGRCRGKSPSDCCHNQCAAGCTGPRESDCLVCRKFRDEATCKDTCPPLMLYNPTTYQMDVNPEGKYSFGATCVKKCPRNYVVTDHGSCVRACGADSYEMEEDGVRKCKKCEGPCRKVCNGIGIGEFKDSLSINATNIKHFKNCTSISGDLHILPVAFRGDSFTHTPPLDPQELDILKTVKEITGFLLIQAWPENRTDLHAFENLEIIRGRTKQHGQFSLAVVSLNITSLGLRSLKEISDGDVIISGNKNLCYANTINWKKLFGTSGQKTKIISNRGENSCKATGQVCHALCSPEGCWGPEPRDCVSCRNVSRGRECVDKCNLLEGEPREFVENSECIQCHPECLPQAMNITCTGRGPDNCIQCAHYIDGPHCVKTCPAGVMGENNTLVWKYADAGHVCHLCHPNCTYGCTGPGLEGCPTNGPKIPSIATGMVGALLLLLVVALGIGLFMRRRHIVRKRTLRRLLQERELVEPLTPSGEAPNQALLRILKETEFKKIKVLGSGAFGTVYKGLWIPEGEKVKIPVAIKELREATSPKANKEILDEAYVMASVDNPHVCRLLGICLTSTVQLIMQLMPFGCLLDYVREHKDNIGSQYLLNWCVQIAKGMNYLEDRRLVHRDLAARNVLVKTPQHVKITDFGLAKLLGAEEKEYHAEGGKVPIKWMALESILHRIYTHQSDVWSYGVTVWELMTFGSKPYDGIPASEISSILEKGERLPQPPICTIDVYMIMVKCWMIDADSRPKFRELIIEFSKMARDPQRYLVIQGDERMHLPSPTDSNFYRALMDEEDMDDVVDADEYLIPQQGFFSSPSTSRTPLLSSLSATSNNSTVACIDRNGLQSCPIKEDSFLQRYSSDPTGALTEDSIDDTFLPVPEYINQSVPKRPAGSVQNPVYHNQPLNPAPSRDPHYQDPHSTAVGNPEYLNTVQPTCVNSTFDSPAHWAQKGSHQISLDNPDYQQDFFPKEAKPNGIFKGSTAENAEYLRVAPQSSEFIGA
# Details: at 0.1 µM
Reported endpoint: inhibition (%)

[[record]]
record_smiles = "O=C1NC(=O)C(N2CCc3ccccc32)=C1c1ccc(Cl)cc1"
system_tested = "Epidermal growth factor receptor (Homo sapiens), P00533 [T790M]"
result_number = 2.82

[[record]]
record_smiles = "COc1cccc(-n2ncc3c(N/N=C/c4cccc(F)c4)ncnc32)c1"
system_tested = "Epidermal growth factor receptor (Homo sapiens), P00533 [T790M]"
result_number = -0.78

[[record]]
record_smiles = "CC(C)=Cc1cccc2c1/C(=N/Nc1ccc(S(N)(=O)=O)cc1)C(=O)N2"
system_tested = "Epidermal growth factor receptor (Homo sapiens), P00533 [T790M]"
result_number = 1.38

[[record]]
record_smiles = "COc1cc2c(cc1Nc1nc(N3CCc4ccccc43)c3cc[nH]c3n1)N(C(=O)CN(C)C)CC2"
system_tested = "Epidermal growth factor receptor (Homo sapiens), P00533 [T790M]"
result_number = 1.57

[[record]]
record_smiles = "COC(=O)Nc1nc2cc(Oc3ccc(NC(=O)Nc4cccc(C(=O)O)c4)cc3)ccc2[nH]1"
system_tested = "Epidermal growth factor receptor (Homo sapiens), P00533 [T790M]"
result_number = 1.78

[[record]]
record_smiles = "CCn1c(-c2nonc2N)nc2c(N3CCCC3)nccc21"
system_tested = "Epidermal growth factor receptor (Homo sapiens), P00533 [T790M]"
result_number = -1.01

[[record]]
record_smiles = "COc1ccccc1Nc1ncc(-c2ccccc2)o1"
system_tested = "Epidermal growth factor receptor (Homo sapiens), P00533 [T790M]"
result_number = 2.11

[[record]]
record_smiles = "O=C1NC(=O)C(c2ccc(Cl)cc2)=C1Nc1ccc(Cl)c(C(=O)O)c1"
system_tested = "Epidermal growth factor receptor (Homo sapiens), P00533 [T790M]"
result_number = -0.88

[[record]]
record_smiles = "NS(=O)(=O)c1ccc(N/N=C2\\C(=O)Nc3ccc(C(=O)NCCc4c[nH]cn4)cc32)cc1"
system_tested = "Epidermal growth factor receptor (Homo sapiens), P00533 [T790M]"
result_number = 2.7

[[record]]
record_smiles = "Cc1ccc(C(=O)NC2CCCCC2)cc1-c1ccc(C(=O)NCC2CC2)cc1"
system_tested = "Epidermal growth factor receptor (Homo sapiens), P00533 [T790M]"
result_number = 0.94

